- target: plasma kallikrein (Homo sapiens)
- Construct: from tissue; host or cells: sodium citrate collected human plasma (78% final)
- Sequence (P03952 391-638 limits assumed): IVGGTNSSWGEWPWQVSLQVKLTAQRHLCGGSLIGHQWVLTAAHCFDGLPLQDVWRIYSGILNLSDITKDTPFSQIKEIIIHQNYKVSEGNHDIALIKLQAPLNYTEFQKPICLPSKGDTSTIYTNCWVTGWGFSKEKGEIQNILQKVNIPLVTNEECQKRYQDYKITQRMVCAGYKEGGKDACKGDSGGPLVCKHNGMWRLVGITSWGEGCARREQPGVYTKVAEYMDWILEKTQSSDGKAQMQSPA
- Sequence (P03952 20-390 partner limits assumed): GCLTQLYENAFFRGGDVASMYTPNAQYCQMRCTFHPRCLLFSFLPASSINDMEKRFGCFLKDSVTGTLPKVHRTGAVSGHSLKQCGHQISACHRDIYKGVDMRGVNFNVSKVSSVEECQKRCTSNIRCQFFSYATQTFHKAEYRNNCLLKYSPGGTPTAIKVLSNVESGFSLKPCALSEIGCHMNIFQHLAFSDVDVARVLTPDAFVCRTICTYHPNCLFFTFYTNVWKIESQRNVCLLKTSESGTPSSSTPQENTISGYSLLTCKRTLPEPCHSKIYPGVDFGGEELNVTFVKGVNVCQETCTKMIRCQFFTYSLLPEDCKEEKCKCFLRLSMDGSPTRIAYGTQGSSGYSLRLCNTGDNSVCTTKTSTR
- protocol.summary: Neat human plasma assay: contact pathway-activated (FXIIa) plasma, PFR-AMC substrate
- Assay type: biochemical
- applied.conditions: citrated human plasma (78% final), 10 nM human FXIIa, 100 μM PFR-AMC, room temperature
observation.type: IC90

[in] Name the reported IC90 value associated with the molecule Cc1ccnc([C@H]2C[C@@H]2c2cc(-n3ccnc3)c3ccc(NCc4cn5cc(C6CC6)cc(N6CC(=O)N(C)C6=O)c5n4)cc3n2)n1 (racemic) [Example 25]
[out] 1.5 to 10 µM

[in] Name the reported IC90 value associated with the molecule Cc1ccnc([C@H]2C[C@@H]2c2cc(OCCO)c3ccc(NCc4cn5cc(C6CC6)cc(N6CC(=O)N(C)C6=O)c5n4)cc3n2)n1 (racemic) [Example 69]
[out] 0.4 to 1.5 µM

[in] Name the reported IC90 value associated with the molecule Cc1ccnc([C@H]2C[C@@H]2C2=NS(=O)(=O)c3ccc(N(C)Cc4cn5cc(C6CC6)ccc5n4)cc3N2)n1 (racemic) [Example 80]
[out] 1.5 to 10 µM

[in] Name the reported IC90 value associated with the molecule Cc1ccnc([C@H]2C[C@@H]2C2=CS(=O)(=O)c3ccc(NCc4cn5cc(C6CC6)ccc5n4)cc3N2)n1 (racemic) [Example 55]
[out] 1.5 to 10 µM

[in] Name the reported IC90 value associated with the molecule Cc1ccnc([C@H]2C[C@@H]2c2ncc3ccc(NCc4cn5cc(C6CC6)cc(N6CC(=O)N(C)C6=O)c5n4)cc3n2)n1 (racemic) [Example 60]
[out] 10 to 22 µM

[in] Name the reported IC90 value associated with the molecule Cc1ccnc([C@H]2C[C@@H]2c2cc(N3CC4(COC4)C3)c3cnc(OCc4cn5cc(C6CC6)cc(N6CC(=O)N(C)C6=O)c5n4)cc3n2)n1 [Example 103]
[out] ≤ 0.4 µM

[in] Name the reported IC90 value associated with the molecule CCN1CCN(c2cc(C3CC3)cn3cc(CNc4ccc5ccc([C@H]6C[C@@H]6c6nccc(C)n6)nc5c4)nc23)CC1 (racemic) [Example 74]
[out] 1.5 to 10 µM
